# Tested on: MV4-11
# experiment description: cells
# recorded conditions: Homo sapiens
experimental endpoint: EC50 (nM)
Give bare numbers, in nM.

Incoming: Give EC50 (MV4-11) of the following compound: "CC(C)N(C[C@H]1O[C@@H](n2cnc3c(N)ncnc32)[C@H](O)[C@@H]1O)[C@H]1C[C@@H](CCc2nc3cc(C(C)(C)C)ccc3[nH]2)C1"
Outgoing: 4

Switching to the query record.
Incoming: Give EC50 (MV4-11) of the following compound: "CC(C)N(CCCNC(=O)Nc1ccc(C(C)(C)C)cc1)C[C@H]1O[C@@H](n2ccc3c(N)ncnc32)[C@H](O)[C@@H]1O"
Outgoing: 4
